The origin of these recorded values is patent US20230286973A1.

System: TNFα-FL/Gaussia Luciferase
Experiment: Dox Induced TNFα-FL-Gluc Assay
Type: cell-based
Conditions: 24 hr Dox induction; 293FRT/TO cells; read-out: 24 hr Dox Inducible TNFaFLGluc 293FRT/TO: Mean IC50
pIC50: −log10 of the molar value.
Quick reference: pIC50 of the listed items.

cpd.smiles | sign | pIC50
CCn1cnc(/C=C/c2csc(NC(=O)c3cccn3Cc3ccncc3)n2)c1 | < | 4.60
CC(C)c1ccc(/C=C/c2csc(NC(=O)c3cccn3Cc3cccnc3)n2)nc1 | < | 4.60
Cc1c(/C=C/c2csc(NC(=O)c3cccn3Cc3ccncc3)n2)ncn1C(C)C | = | 5.64
CC(C)c1nc(/C=C/c2csc(NC(=O)c3cccn3Cc3ccnc(F)c3)n2)cn1C | < | 4.60
CC(C)Oc1ccc(N2CCC[C@@H]2c2csc(NC(=O)c3cccn3Cc3ccnc(F)c3)n2)cc1 | = | 6.80
NCCOc1ccc(N2CCC[C@@H]2c2csc(NC(=O)c3cccn3Cc3ccnc(F)c3)n2)cc1 | = | 6.42
CC(=O)N[C@@H](C)c1ccc(N2CCC[C@@H]2c2csc(NC(=O)c3cccn3Cc3ccnc(F)c3)n2)cc1 | = | 6.48
CC(=O)N1CCC(Oc2ccc(N3CCC[C@@H]3c3csc(NC(=O)c4cccn4Cc4ccnc(F)c4)n3)c(Cl)c2)CC1 | = | 6.68
COCCn1cnc(/C=C/c2csc(NC(=O)c3cccn3Cc3ccncc3)n2)c1 | < | 4.60
O=C(Nc1nc([C@H]2CCCN2c2ccc(OC3CCN(C(=O)C(F)F)CC3)cc2)cs1)c1cccn1Cc1ccnc(F)c1 | = | 6.83
O=C(Nc1nc(/C=C/c2ncoc2C2CCCCC2)cs1)c1cccn1Cc1ccnc(F)c1 | = | 5.42
CC(=O)N1CCC(Nc2ccc(N3CCC[C@@H]3c3csc(NC(=O)c4cccn4Cc4ccnc(F)c4)n3)cc2)CC1 | = | 6.50
O=C(Nc1nc([C@H]2CCCN2c2ccc(C3CCNCC3)cc2)cs1)c1cccn1Cc1ccncc1 | = | 4.71
COc1cc(N2CCC[C@@H]2c2csc(NC(=O)c3cccn3Cc3ccnc(F)c3)n2)ccc1OC1CCN(C(C)=O)CC1 | = | 6.52
CC(C)n1cc(/C=C/c2csc(NC(=O)c3cccn3Cc3ccnc(F)c3)n2)nc1CO | < | 4.60
